These measurements were taken from patent US20150284375A1.

Molecular target: human TRPA1 (Homo sapiens)
Construct: expressed in transfected cells; host or cells: Human embryonic kidney-derived 293T cells, transiently transfected with the pcDNA3.1/zeo(+) human TRPA1 plasmid
Sequence (O75762 whole entry): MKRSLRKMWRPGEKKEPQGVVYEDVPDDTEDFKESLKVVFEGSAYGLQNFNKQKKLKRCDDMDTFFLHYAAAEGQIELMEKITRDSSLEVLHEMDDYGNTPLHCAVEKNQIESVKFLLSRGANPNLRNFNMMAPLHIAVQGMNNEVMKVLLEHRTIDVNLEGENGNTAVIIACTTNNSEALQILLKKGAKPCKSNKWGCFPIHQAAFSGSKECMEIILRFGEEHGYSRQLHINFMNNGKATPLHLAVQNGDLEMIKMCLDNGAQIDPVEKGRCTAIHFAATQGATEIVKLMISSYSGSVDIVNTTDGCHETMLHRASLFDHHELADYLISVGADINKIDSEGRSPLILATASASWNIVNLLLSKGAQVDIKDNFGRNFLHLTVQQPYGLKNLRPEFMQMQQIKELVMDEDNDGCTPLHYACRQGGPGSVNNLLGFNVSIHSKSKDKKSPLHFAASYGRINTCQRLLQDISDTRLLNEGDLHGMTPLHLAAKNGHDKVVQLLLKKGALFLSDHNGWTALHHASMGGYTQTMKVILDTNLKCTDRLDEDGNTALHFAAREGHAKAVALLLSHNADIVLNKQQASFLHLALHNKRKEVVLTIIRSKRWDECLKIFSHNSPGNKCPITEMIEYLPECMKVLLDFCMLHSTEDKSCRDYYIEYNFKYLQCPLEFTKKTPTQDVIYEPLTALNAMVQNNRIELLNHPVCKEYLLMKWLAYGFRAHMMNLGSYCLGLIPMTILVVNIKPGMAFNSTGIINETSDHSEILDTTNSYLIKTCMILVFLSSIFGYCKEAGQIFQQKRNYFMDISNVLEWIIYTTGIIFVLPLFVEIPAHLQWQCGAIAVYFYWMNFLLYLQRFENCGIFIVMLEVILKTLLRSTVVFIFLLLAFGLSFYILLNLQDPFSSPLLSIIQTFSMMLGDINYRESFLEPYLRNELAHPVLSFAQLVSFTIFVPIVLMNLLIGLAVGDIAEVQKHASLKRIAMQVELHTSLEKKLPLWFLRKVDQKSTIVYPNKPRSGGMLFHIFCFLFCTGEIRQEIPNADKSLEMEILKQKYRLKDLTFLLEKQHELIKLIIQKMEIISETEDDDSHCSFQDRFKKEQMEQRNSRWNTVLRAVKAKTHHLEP
Assay: Measurement of TRPA1 antagonist activity (intracellular calcium increase, FLIPR, allylisothiocyanate stimulation)
Assay type: cell-based
Details: 293T cells transfected with human TRPA1; allylisothiocyanate 20 μM; concentration for 50% inhibitory rate; read-out: antagonism hTRPA1
Kindly supply the reported IC50 values for the records listed here.
Field: numeric (µM). Do not append units.

For O=C(NCc1cccc(OCc2ccccc2C(F)(F)F)c1)[C@@H]1CCCN1S(=O)(=O)c1ccc(Cl)s1 , write its IC50. 0.08

For O=C(NCc1ccc(COc2ccccc2C(F)(F)F)cc1)[C@@H]1CCCN1S(=O)(=O)c1ccc(Cl)s1 , write its IC50. 0.42

For O=C(NCc1cccc(Oc2cccc(OC(F)(F)F)c2)c1)[C@@H]1CCCN1S(=O)(=O)c1ccc(Cl)s1 , write its IC50. 0.071

For O=C(NCc1cccc(OCc2cccc(C(F)(F)F)c2)c1)[C@@H]1CCCN1S(=O)(=O)c1ccc(Cl)s1 , write its IC50. 0.0089
